Target: full-length B-Catenin (Uniprot ID P35222) (Homo sapiens, UniProt P35222)
Construct: 65 nM full-length B-Catenin (Uniprot ID P35222)
Sequence (P35222 whole entry): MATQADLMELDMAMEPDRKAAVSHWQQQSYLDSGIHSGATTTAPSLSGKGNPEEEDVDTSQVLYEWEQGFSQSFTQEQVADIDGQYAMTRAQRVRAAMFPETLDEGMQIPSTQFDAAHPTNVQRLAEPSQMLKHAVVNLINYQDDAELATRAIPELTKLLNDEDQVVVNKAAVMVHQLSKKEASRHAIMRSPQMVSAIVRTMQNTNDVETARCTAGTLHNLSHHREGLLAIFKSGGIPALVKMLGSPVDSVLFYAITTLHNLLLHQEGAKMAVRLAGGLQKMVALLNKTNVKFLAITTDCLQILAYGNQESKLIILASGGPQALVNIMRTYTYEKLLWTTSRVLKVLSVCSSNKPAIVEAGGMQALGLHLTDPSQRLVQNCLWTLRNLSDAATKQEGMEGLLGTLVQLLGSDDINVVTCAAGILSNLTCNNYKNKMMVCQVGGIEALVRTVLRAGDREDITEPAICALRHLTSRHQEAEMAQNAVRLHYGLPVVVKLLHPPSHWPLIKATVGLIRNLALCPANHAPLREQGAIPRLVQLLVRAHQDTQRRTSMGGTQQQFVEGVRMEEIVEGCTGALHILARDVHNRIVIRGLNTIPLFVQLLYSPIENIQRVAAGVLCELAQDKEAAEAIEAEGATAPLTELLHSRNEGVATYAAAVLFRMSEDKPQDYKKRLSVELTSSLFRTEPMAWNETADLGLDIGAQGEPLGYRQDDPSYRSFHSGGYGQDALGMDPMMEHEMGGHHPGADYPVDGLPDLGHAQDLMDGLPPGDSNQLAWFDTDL
Assay: Alphascreen binding assay (beta-catenin / biotin-TCF4 10-53)

[
  {
    "Compound": "CC(=O)N1CCC[C@]12CC=CCCCC1(CCCC=CCCCCCC[C@@](C)(C(=O)N[C@@H](Cc3ccccc3)C(=O)N[C@@H](Cc3c[nH]c4ccccc34)C(=O)N[C@@H](C)C(N)=O)NC(=O)[C@H](C(C)C)NC(=O)[C@H](Cc3ccccc3)NC(=O)[C@H](C)NC(=O)[C@H](C)NC(=O)[C@H](CC(=O)O)NC(=O)[C@H](CC(=O)O)NC1=O)NC(=O)[C@H](C)NC(=O)[C@H](CC(=O)O)NC2=O (some centres unmarked) [I-292]",
    "Target system": "full-length B-Catenin (Uniprot ID P35222) (Homo sapiens, UniProt P35222)",
    "Unit abbrev": "nM",
    "EC50": 187
  },
  {
    "Compound": "CC(=O)N1CCC[C@]12CC=CCCCC1(CCCC=CCCCCCC[C@@](C)(C(=O)N[C@@H](Cc3ccccc3)C(=O)N[C@@H](Cc3c[nH]c4ccccc34)C(=O)N[C@@H](CCC(N)=O)C(N)=O)NC(=O)[C@H](C)NC(=O)[C@H](Cc3ccccc3)NC(=O)[C@H](C)NC(=O)[C@H](C)NC(=O)[C@H](CC(=O)O)NC(=O)[C@H](CC(=O)O)NC1=O)NC(=O)[C@H](C)NC(=O)[C@H](CC(=O)O)NC2=O (some centres unmarked) [I-287]",
    "Target system": "full-length B-Catenin (Uniprot ID P35222) (Homo sapiens, UniProt P35222)",
    "Unit abbrev": "nM",
    "EC50": 534
  }
]

Data provenance: patent US20240116985A1
